# experiment summary: RPL19A-GFP modulators, yeast TOR pathway, confirmation, cell-based, S. cerevisiae, flow cytometry, cherry picks, mother/daughter gates (AID 2270)
# cond: S. cerevisiae RPL19A-GFP strain, 3 h, measured here: daughter cell gate, at 10 µM, stronger effect = lower value, 100 = same GFP as DMSO wells
readout kind: GFP response vs DMSO (%)
Report as a plain number; the unit % is understood.

# annotated cases, reported GFP response vs DMSO shown
[
  {
    "molecule": "Cc1noc2ncnc(Sc3ccc(Cl)cc3)c12",
    "readout kind": "GFP response vs DMSO",
    "unit descriptor": "%",
    "reported result": 94.9
  },
  {
    "molecule": "O=S(=O)(c1ccccc1)N1N=C(c2ccccc2)CC1c1ccccc1 (stereo unspecified)",
    "readout kind": "GFP response vs DMSO",
    "unit descriptor": "%",
    "reported result": 105
  }
]

// moving on: another record for GFP response vs DMSO
Request: Quickly give me recorded GFP response vs DMSO for "Cc1ccc(NC(=O)c2nc(S(=O)(=O)Cc3ccccc3C)ncc2Cl)cc1C"
Result: 89.6

====

# experiment summary: LAP4-GFP expression modulators in yeast, confirmation, cell-based, cherry picks, flow cytometry, mother/daughter gates (AID 2271);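 also: ratio of sample to DMSO plate mean so 100% equals DMSO level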
# cond: S. cerevisiae LAP4-GFP strain, 3 h, at 10 µM, 100 means same as DMSO control
Active and inactive are the calls of the source.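 The calls were made as follows: active = GFP response above 150% of the DMSO control; inconclusive = fewer than 70 events counted in any yeast strain; inactive = the rest.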
// classify into t = active, f = inactive

Examples from the recorded data:
[
  {
    "compound": "COc1ccccc1-c1noc(-c2cccnc2)n1",
    "answer label": "f"
  },
  {
    "compound": "COc1ccc(N2CCN(c3nc4c(C)cccn4c(=O)c3/C=C(\\C#N)C(N)=O)CC2)cc1",
    "answer label": "f"
  },
  {
    "compound": "O=C(Nc1cccc(C(F)(F)F)c1)Oc1ccc(Cl)c2cccnc12",
    "answer label": "f"
  },
  {
    "compound": "COc1ccc(N2CCN(C(=O)CCc3nnc4ccc(N5CCCC5)nn34)CC2)cc1",
    "answer label": "f"
  },
  {
    "compound": "CCN(CC)CCCN(Cc1cc2cc3c(cc2[nH]c1=O)OCO3)C(=S)Nc1ccccc1",
    "answer label": "f"
  }
]

Request: Can you look up the reported call for O=C1C2C3C=CC(CNS(=O)(=O)c4ccccc4[N+](=O)[O-])(O3)C2C(=O)N1c1ccccc1 (stereo unspecified) for me?
Result: f

Request: Can you look up the reported call for "N#Cc1ccccc1Cn1cc(/C=C/[N+](=O)[O-])c2ccccc21" for me?
Result: f

Request: Can you look up the reported call for "O=C(C1CCN(Cc2nc(Cc3cccc(F)c3)no2)CC1)N1CCOCC1" for me?
Result: f

Request: Can you look up the reported call for "COc1ccc(NC(=S)NCCCCCC(=O)C[N+](=O)[O-])cc1" for me?
Result: f

Request: Can you look up the reported call for "Cc1nn2c(NCCCN3CCOCC3)c3c(nc2c1-c1ccccc1)CCC3" for me?
Result: f

Request: Can you look up the reported call for "CCSc1nnc(NC(=O)c2ccccn2)s1" for me?
Result: t

====

# experiment summary: AGP1-GFP expression modulators, hit retest, confirmation, cell-based, flow cytometry, S. cerevisiae, cherry picks (AID 2273);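 also: median GFP channel fluorescence over the whole cell population gate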
# cond: S. cerevisiae AGP1-GFP strain, 3 h, at 10 µM
readout kind: GFP response, % of DMSO (%)
Report as a plain number; the unit % is understood.

# annotated cases, reported GFP response, % of DMSO shown
[
  {
    "compound": "COc1ccc(/C=C/C(=O)C2C(=O)C=C(C)OC2=O)cc1O (stereo not given)",
    "GFP response, % of DMSO (%)": 101
  },
  {
    "compound": "COc1cc(NC(=O)c2cccs2)ccc1NC(=O)c1cc2ccccc2o1",
    "GFP response, % of DMSO (%)": 99.9
  },
  {
    "compound": "O=[N+]([O-])c1cc(C(F)(F)F)ccc1Sc1ccccn1",
    "GFP response, % of DMSO (%)": 99.2
  }
]

Request: Quickly give me recorded GFP response, % of DMSO for "Cc1ccccc1OCC(=O)NNC(=S)NC(=O)c1ccco1"
Result: 110

Request: Quickly give me recorded GFP response, % of DMSO for "Cc1cc(=O)oc2c(C(=O)/C=C\c3cccs3)c(O)ccc12"
Result: 101

====

# experiment summary: RPL19A-GFP modulators, yeast TOR pathway, confirmation, cell-based, S. cerevisiae, flow cytometry, cherry picks, mother/daughter gates (AID 2270)
# cond: S. cerevisiae RPL19A-GFP strain, 3 h, at 10 µM, stronger effect = lower value, 100 = same GFP as DMSO wells
readout kind: GFP response vs DMSO (%)
Report as a plain number; the unit % is understood.

# annotated cases, reported GFP response vs DMSO shown
[
  {
    "compound": "O=C(/C=C/Sc1ncn[nH]1)c1ccc(Cl)cc1",
    "GFP response vs DMSO [%]": 106
  },
  {
    "compound": "CN1CC(=O)NC1=NC(=O)C12CC3CC(CC(C3)C1)C2",
    "GFP response vs DMSO [%]": 95
  },
  {
    "compound": "COc1ccccc1OCCCc1c(C)n[nH]c1C",
    "GFP response vs DMSO [%]": 119
  }
]

Request: Quickly give me recorded GFP response vs DMSO for "Cc1cc2ccccn2c1C(=O)c1ccc([N+](=O)[O-])o1"
Result: 102

Request: Quickly give me recorded GFP response vs DMSO for "CN(C)c1ccc(/C=C/c2cc[n+](C)cc2)cc1"
Result: 111

Request: Quickly give me recorded GFP response vs DMSO for "COc1ccc(C2C3=C(CCCC3=O)N(CC(=O)O)C3=C2C(=O)CCC3)cc1Cl"
Result: 102

Request: Quickly give me recorded GFP response vs DMSO for "O=S(=O)(/N=C(\Sc1ccc(Cl)cc1)c1ccccc1)c1ccccc1"
Result: 93.1

Request: Quickly give me recorded GFP response vs DMSO for "CS(=O)(=O)N1CCc2cc(C(=O)Nc3ccc(COCC(F)(F)F)cc3)ccc21"
Result: 102

Request: Quickly give me recorded GFP response vs DMSO for "Oc1ccc(-c2csc(-c3ccccc3)n2)cc1O"
Result: 97

Request: Quickly give me recorded GFP response vs DMSO for "CC(C)n1c(=S)[nH]c2c1c(=O)[nH]c(=O)n2C"
Result: 98.8

Request: Quickly give me recorded GFP response vs DMSO for CCCc1[nH]nc2c1C(c1ccc(OC)c(Cn3nnc4ccccc43)c1)C(C#N)=C(N)O2 (stereo unspecified)
Result: 98

====

Listed here: items and their measured percent response of DMSO control.
# experiment summary: modulators of CIT2-GFP expression in yeast, primary screen, S. cerevisiae, GFP fusion, multiplex flow cytometry (AID 1870);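 also: barcoded CIT2-GFP strain pooled with four other GFP strains with rapamycin as positive control; median GFP fluorescence per well over plate mean of DMSO wells so 100% = DMSO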
# cond: 3 h, at 10 µM, stronger effect = higher value
Peptide text beside a SMILES is read from it. * marks the point of attachment. Boc = CC(C)(C)OC(=O)*
Report as a plain number; the unit % is understood.

# annotated cases, reported percent response of DMSO control shown
[
  {
    "compound": "COc1ccc2[nH]cc(CCNC(=O)C3CCCNC3=O)c2c1 (stereo not drawn)",
    "unit descriptor": "%",
    "percent response of DMSO control": 104
  },
  {
    "compound": "COc1cc(=O)n(C)c2ccccc12",
    "unit descriptor": "%",
    "percent response of DMSO control": 97.9
  },
  {
    "compound": "O=C1C=CC(=O)C(C2=C3C(=O)N(CCc4ccccc4)CC(=O)N3CCC2)=C1",
    "unit descriptor": "%",
    "percent response of DMSO control": 102
  },
  {
    "compound": "CCc1cc2c(=O)c(-c3ccc(F)cc3)c(C)oc2cc1OCC(=O)O",
    "unit descriptor": "%",
    "percent response of DMSO control": 104
  },
  {
    "compound": "O=C(OCC1OC2OC3(CCCCC3)OC2C2OC3(CCCCC3)OC12)c1ccccc1 (stereo not drawn)",
    "unit descriptor": "%",
    "percent response of DMSO control": 116
  },
  {
    "compound": "O=C1NC2(Nc3ccccc31)C(=O)Nc1ccc(Br)cc12 (stereo not drawn)",
    "unit descriptor": "%",
    "percent response of DMSO control": 102
  }
]

Request: Quickly give me recorded percent response of DMSO control for "COc1ccc(C(=O)Nc2ccccc2C(=O)NCCCn2ccnc2)cc1"
Result: 93.9

Request: Quickly give me recorded percent response of DMSO control for "CCOc1ccccc1OCCOc1ccc(F)cc1"
Result: 100

Request: Quickly give me recorded percent response of DMSO control for CC(C)(C)OC(=O)N1CCCC1C(=O)NC(Cc1ccccc1)C(=O)O (stereo not drawn) (Boc-Pro-Phe-OH; configuration not given here)
Result: 104

Request: Quickly give me recorded percent response of DMSO control for "CCOC(=O)C(=O)Nc1ccc(Oc2ccccc2)cc1"
Result: 101
